molecular target: recombinant human MAO-B (monoamine oxidase-B) (Homo sapiens); construct: purchased Sigma-Aldrich; test: Amplex Red HRP-coupled amine oxidase activity evaluation, recombinant human MAO-B; type: biochemical; details: substrate 1 mM benzylamine; read-out: Inhibitory Activity (IC50, nM) MAO-B
Sequence (P27338 whole entry): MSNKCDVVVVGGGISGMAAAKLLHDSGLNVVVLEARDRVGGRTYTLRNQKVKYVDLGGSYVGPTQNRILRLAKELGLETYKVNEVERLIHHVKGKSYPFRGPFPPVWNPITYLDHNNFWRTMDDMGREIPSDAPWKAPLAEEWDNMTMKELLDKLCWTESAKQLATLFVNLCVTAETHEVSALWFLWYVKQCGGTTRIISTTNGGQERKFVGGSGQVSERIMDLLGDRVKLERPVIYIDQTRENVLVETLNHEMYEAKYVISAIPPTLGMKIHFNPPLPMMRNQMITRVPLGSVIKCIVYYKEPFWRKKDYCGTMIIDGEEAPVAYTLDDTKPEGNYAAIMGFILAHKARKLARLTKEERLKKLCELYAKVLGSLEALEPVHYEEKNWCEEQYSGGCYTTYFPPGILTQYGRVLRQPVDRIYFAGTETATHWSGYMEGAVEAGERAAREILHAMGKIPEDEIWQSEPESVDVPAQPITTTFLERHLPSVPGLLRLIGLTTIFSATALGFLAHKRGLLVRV
Where a name gives a salt, the structure may show the parent alone.
quantity-kind: IC50

The cases that follow already have their IC50 on record.
| compound | study-target | IC50 |
| --- | --- | --- |
| NCC(Cn1nnn(-c2cccc(-c3ccc(N4CCNCC4)cc3)c2)c1=O)=C(F)F [Example 11, trifluoroacetate] | recombinant human MAO-B (monoamine oxidase-B) (Homo sapiens) | > 100000 nM |
| CCn1cc(-c2ccc(Cn3nnn(CC(CN)=C(F)F)c3=O)s2)ccc1=O [Example 44] | recombinant human MAO-B (monoamine oxidase-B) (Homo sapiens) | 10000 nM |
| CCn1cc(-c2ccc(Cn3nnn(CC(CN)=C(F)F)c3=O)s2)cn1 [Example 47, trifluoroacetate] | recombinant human MAO-B (monoamine oxidase-B) (Homo sapiens) | 15100 nM |
| Cc1cc(-c2cccc(Cn3nnn(CC(CN)=C(F)F)c3=O)c2)cc2c1NC(=O)CC2 [Example 31, trifluoroacetate] | recombinant human MAO-B (monoamine oxidase-B) (Homo sapiens) | 9000 nM |
| NCC(Cn1nnn(-c2ccc(-c3ccc4c(c3)OCO4)cc2)c1=O)=C(F)F [Example 19, trifluoroacetate] | recombinant human MAO-B (monoamine oxidase-B) (Homo sapiens) | 8.8 nM |

Incoming: Quick check: IC50 of CN1C(=O)CCc2cc(-c3ccc(Cn4nnn(CC(CN)=C(F)F)c4=O)s3)ccc21 [Example 46, trifluoroacetate] ?
Outgoing: 6830 nM

Incoming: Moving on to the next compound: NCC(Cn1nnn(Cc2cccc(-c3ccc(N4CCNCC4)cc3)c2)c1=O)=C(F)F [Example 28, di-trifluoroacetate]
Outgoing: 35800 nM

Incoming: And then CCn1cc(-c2ccc(Cn3c(C)nn(CC(CN)=C(F)F)c3=O)s2)ccc1=O [Example 4, trifluoroacetate] , what is it?
Outgoing: > 100000 nM

Incoming: Here is the next compound: NCC(Cn1nnn(-c2cncc(-c3ccc4c(c3)OCO4)c2)c1=O)=C(F)F [Example 48, trifluoroacetate]
Outgoing: 4400 nM

Incoming: Then this compound: CN1C(=O)CCc2cc(-c3csc(-n4nnn(CC(CN)=C(F)F)c4=O)c3)ccc21 [Example 41, trifluoroacetate]
Outgoing: 34 nM

---

Known IC50 of a selection of molecules
Target: recombinant human MAO-A (monoamine oxidase-A) (Homo sapiens, UniProt P21397)
Construct: purchased Sigma-Aldrich
Sequence (P21397 1-527): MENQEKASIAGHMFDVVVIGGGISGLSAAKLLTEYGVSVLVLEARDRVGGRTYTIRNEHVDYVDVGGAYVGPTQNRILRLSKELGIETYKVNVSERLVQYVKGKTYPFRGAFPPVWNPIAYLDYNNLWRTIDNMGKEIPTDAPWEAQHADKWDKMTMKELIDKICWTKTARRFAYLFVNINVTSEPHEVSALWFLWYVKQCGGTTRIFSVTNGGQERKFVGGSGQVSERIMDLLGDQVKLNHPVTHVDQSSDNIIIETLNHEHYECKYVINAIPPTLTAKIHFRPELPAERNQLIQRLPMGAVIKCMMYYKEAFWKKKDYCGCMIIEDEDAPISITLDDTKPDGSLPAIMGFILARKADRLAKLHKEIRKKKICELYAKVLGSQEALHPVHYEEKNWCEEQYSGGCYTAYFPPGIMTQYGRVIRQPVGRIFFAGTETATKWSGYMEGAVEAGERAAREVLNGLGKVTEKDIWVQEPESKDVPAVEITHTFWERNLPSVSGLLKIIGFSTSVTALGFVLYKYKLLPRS
Assay: Amplex Red HRP-coupled amine oxidase activity evaluation, recombinant human MAO-A
Type: biochemical
Settings: substrate 0.5 mM tyramine; read-out: Inhibitory Activity (IC50, nM) MAO-A
Counter-ions that a name gives are not always drawn.

A selection of reference data follows.
| molecule | result-value |
| --- | --- |
| CS(=O)(=O)c1ccc(-c2cccc(-n3nnn(CC(CN)=C(F)F)c3=O)c2)cc1 [Example 10, trifluoroacetate] | > 100000 nM |
| CN1C(=O)CCc2cc(-c3ccc(-n4nnn(CC(CN)=C(F)F)c4=O)cc3)ccc21 [Example 21, trifluoroacetate] | > 100000 nM |

Incoming: Quick check: IC50 of CCn1cc(-c2cccc(Cn3nnn(CC(CN)=C(F)F)c3=O)c2)cn1 [Example 32, trifluoroacetate] ?
Outgoing: > 100000 nM

Incoming: Now consider CCn1cc(-c2csc(-n3nnn(CC(CN)=C(F)F)c3=O)c2)ccc1=O [Example 37, trifluoroacetate] .
Outgoing: > 100000 nM

Incoming: And the next one, NCC(Cn1ccn(Cc2ccc(-c3ccn4ncnc4c3)s2)c1=O)=C(F)F [Example 53, trifluoroacetate] ?
Outgoing: > 100000 nM

Incoming: Next record, please: Cc1cc(-c2ccc(Cn3c(C)nn(CC(CN)=C(F)F)c3=O)s2)cc2c1NC(=O)CC2 [Example 7, trifluoroacetate]
Outgoing: > 100000 nM

Incoming: Try this molecule too: NCC(Cn1nnn(-c2ccc(-c3ccc(N4CCNCC4)cc3)cc2)c1=O)=C(F)F [Example 17, di-trifluoroacetate]
Outgoing: > 100000 nM
